- Test system: Japanese prickly ash
- protocol.notes: Experiment 3 foliar application to naturally growing shrubs; also: key: -: no reproduction, namely complete suppression of reproduction; ±: remarkable suppression of reproduction; +: considerable suppression of reproduction; ++: medium supprestion of reproduction; +++: no suppression of reproduction
- Assay type: in vivo, Xanthoxylum piperitum DC.
- stated.conditions: 0.1%; after 3 months
parameter: Reproduction-inhibiting

[[record]]
compound = "C[C@H](NC(=O)[C@H](C)NC(=O)[C@@H](N)CCP(C)(=O)O)C(=O)O [(L-2-Amino-4-methylphosphinobutyryl)-L-alanyl-L-alanine mono]"
result = "+"

[[record]]
compound = "CP(=O)(O)CCC(N)C(=O)O (racemic) [DL-2-Amino-4-methylphosphinobutanoic acid monodiethanolammon]"
result = "++"

[[record]]
compound = "CP(=O)(O)CC[C@H](N)C(=O)O [L-2-Amino-4-methylphosphinobutanoic acid monodiethanolammoni]"
result = "±"

[[record]]
compound = "CP(=O)(O)CCC(N)C(=O)O (racemic) [DL-AMPB choline]"
result = "+"

[[record]]
compound = "C[C@H](NC(=O)[C@H](C)NC(=O)[C@@H](N)CCP(C)(=O)O)C(=O)O [SF-1293 choline]"
result = "±"


INPUT: Look up Reproduction-inhibiting: CP(=O)(O)CC[C@H](N)C(=O)O [L-AMPB choline]
OUTPUT: -

INPUT: Looking for the measured Reproduction-inhibiting of O=C(O)CNCP(=O)(O)O [Glyphosate, N-phosphonomethylglycine] , can you help?
OUTPUT: +++

INPUT: For the compound O=C([O-])C(F)(F)C(F)F.[Na+] [sodium 2,2,3,3-tetrafluoropropionate] , what Reproduction-inhibiting is on record?
OUTPUT: +++
